TARGET_ENTITY: MAGI2_5, Q86UL8
Sequence (Q86UL8 915-1017): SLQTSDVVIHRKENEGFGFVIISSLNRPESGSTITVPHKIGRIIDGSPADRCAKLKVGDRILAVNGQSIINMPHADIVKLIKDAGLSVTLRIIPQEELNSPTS
PROTOCOL_TEXT: holdup assay
Set-up: key: below the threshold = too weak to quantify, mostly under pKd 3.1 to 4
APPLIED_CONDITIONS: plain residues with an end cap or a label only (N-terminal biotin on a linker: ahx)
MEASURED_ENDPOINT: pKd

Solved cases (5 shown):
{"columns": ["BINDER", "pKd"],
 "data": [
  ["ESLLLGPSNF [SHROOM4, Q9ULL8]", "below the threshold"],
  ["SDSSGQEYSL [KCTD3, Q9Y597]", "below the threshold"],
  ["RRRKRKRTYL [HPV49-L2, P36762]", "below the threshold"],
  ["NRKREIFSNF [NHERF2, Q15599]", "below the threshold"],
  ["RAVEEEESRF [PSCDBP, O60759]", 3.7]
]}

Asked: May I ask what pKd has been recorded for PSASCAVTAA [PDLIM4, P50479;P50479-2] ?
Given back: below the threshold
